Reference source for all entries: patent US10981932B2

Test system: SUDHL10
Experiment: Induction of cytotoxicity (CellTiter-Glo, 5 h), SUDHL10
Settings: read-out: Cytotox SUDHL10 [M] (median); SUDHL10 cells, cytotoxicity induction, CellTiter-Glo, 5 h incubation, median
// IC50 lookup, one value per entry

Recorded IC50, per entry:
compound="Cn1nc(COc2ccc(N3CCOCC3)cc2)c2c1COCCCCn1c(C(=O)O)c(CCCOc3cccc4ccccc34)c3cccc-2c31 (single isomer, unassigned; enantiomer 2)" outcome_measure=IC50 value_measured="2.1e-05 M"
compound="CCOCc1nn(C)c2c1-c1cccc3c(CCCOc4cccc5ccccc45)c(C(=O)O)n(c13)CCCCOC2 (single isomer, unassigned; enantiomer 1) [Example 169]" outcome_measure=IC50 value_measured="> 3.3e-05 M"
compound="CCn1nc2c(c1C1CC1)-c1cccc3c(CCCOc4cccc5ccccc45)c(C(=O)O)n(c13)CCCCOC2 (single isomer, unassigned; enantiomer 2)" outcome_measure=IC50 value_measured="> 3.3e-05 M"
compound="CCc1nn(C)c2c1-c1c(C)ccc3c(C(C)CCOc4cccc5cc(F)ccc45)c(C(=O)O)n(c13)CCCCOC2 (single isomer, unassigned) [Example 264]" outcome_measure=IC50 value_measured="> 3.3e-05 M"

INPUT: Query IC50 on SUDHL10 for CN1CCCn2c(C(=O)O)c(CCCOc3cccc4ccccc34)c3cccc(c32)-c2c(COc3ccccc3)nn(C)c2C1 (single isomer, unassigned)
OUTPUT: > 3.3e-05 M

* * *

Biological target: MCL-1 (Homo sapiens)
Experiment: Protein-protein interaction assay MCL-1/Noxa BH3 peptide (MCL-1 assay), TR-FRET
Format: binding
Settings: MBP-MCL-1 / Noxa BH3-derived peptide, median
Below, each entry is listed with its recorded IC50.
Just the number please, in nM, no unit attached.

Consider the worked cases shown below.
compound="CCc1nn(C)c2c1-c1cccc3c(CCCOc4cccc5cc(F)ccc45)c(C(=O)O)n(c13)CCCCOC2 (single isomer, unassigned) [Example 289]" outcome_measure=IC50 value_measured=106
compound="CCc1c2c(nn1CCN1CCOCC1)COCCCCn1c(C(=O)O)c(CCCOc3cccc4ccccc34)c3cccc-2c31 (single isomer, unassigned; enantiomer 2) [Example 203]" outcome_measure=IC50 value_measured=2.1
compound="CN1CCN(c2ccc(OCc3nn(C)c4c3-c3cccc5c(CCCOc6cccc7ccccc67)c(C(=O)O)n(c35)CCCCOC4)cc2)CC1 (racemic) [Example 1-7]" outcome_measure=IC50 value_measured=15.8
compound="CC(=O)NCc1nn(C)c2c1-c1cccc3c(CCCOc4cccc5ccccc45)c(C(=O)O)n(c13)CCCCOC2 (racemic) [Example 339]" outcome_measure=IC50 value_measured=32
compound="Cn1nc(COC2CC2)c2c1COCCCCn1c(C(=O)O)c(CCCOc3cccc4ccccc34)c3cccc-2c31 (single isomer, unassigned) [Example 214]" outcome_measure=IC50 value_measured=5.24

INPUT: Report IC50 for CCn1nc2c(c1C1CC1)-c1cccc3c(CCCOc4cccc5ccccc45)c(C(=O)O)n(c13)CCCCOC2 (racemic) [Example 081] tested on MCL-1 (Homo sapiens).
OUTPUT: 15

* * *

// IC50 lookup, one value per entry
Tested on: SUDHL10
Experiment: Induction of cytotoxicity (CellTiter-Glo, 5 h), SUDHL10
Conditions: read-out: Cytotox SUDHL10 [M] (median); SUDHL10 cells, cytotoxicity induction, CellTiter-Glo, 5 h, median
The reply should be a number in M, with the unit left off.

Would you please look over these solved cases?
molecule="Cc1ccc2c(CCCOc3cccc4cc(F)ccc34)c(C(=O)O)n3c2c1-c1c(nn(CCN2CCOCC2)c1C)COCCCC3 (single isomer, unassigned) [Example 294]" value_measured=1.08e-05
molecule="Cn1nc(CN2CCCCC2)c2c1COCCCCn1c(C(=O)O)c(CCCOc3cccc4ccccc34)c3cccc-2c31 (single isomer, unassigned; enantiomer 2)" value_measured=2.67e-05
molecule="COc1ccc(OCc2nn(C)c3c2-c2cccc4c(CCCOc5cccc6ccccc56)c(C(=O)O)n(c24)CCCCOC3)cc1 (single isomer, unassigned; enantiomer 2)" value_measured=2.56e-05

Kindly consider the entry below.
INPUT: Returns the measured IC50 for the input molecule. Input: Cc1c2c(nn1C)COCCCCn1c(C(=O)O)c(CCCOc3cccc4cc(Cl)ccc34)c3cccc-2c31 (single isomer, unassigned)
OUTPUT: 2.77e-05

* * *

Tested on: SUDHL10
Test: Induction of cytotoxicity (CellTiter-Glo, 5 h), SUDHL10
Details: read-out: Cytotox SUDHL10 [M] (median); SUDHL10 cells, cytotoxicity induction, CellTiter-Glo, 5 h incubation, median
OUTCOME MEASURE: IC50 (M)
The answer is to be given in M; state only the numeric part.

Take a look at these entries with their results.
compound="CCc1nn(C)c2c1-c1c(C)ccc3c(C(C)CCOc4cccc5ccccc45)c(C(=O)O)n(c13)CCCCOC2 (single isomer, unassigned) [Example 273]" outcome_measure=IC50 value_measured=1.62e-05
compound="Cc1cc(OCCCc2c(C(=O)O)n3c4c(cccc24)-c2c(C)nn(C)c2COCCC3)cc(C)c1Cl (single isomer, unassigned; enantiomer 2)" outcome_measure=IC50 value_measured=2.87e-05
compound="Cc1nn(C)c2c1-c1cccc3c(CCCOc4cccc5cc(F)ccc45)c(C(=O)O)n(c13)CCCCOC2 (single isomer, unassigned; enantiomer 1) [Example 019]" outcome_measure=IC50 value_measured=3.76e-06

Next up:
INPUT: Return IC50 measured with SUDHL10 given this compound: O=C(O)c1c(CCCOc2cccc3ccccc23)c2cccc3c2n1CCCCOCc1nn2c(c1-3)CCCC2 (single isomer, unassigned) [Example 255]
OUTPUT: 3.28e-05

* * *

Target: MCL-1 (Homo sapiens, UniProt Q07820)
Sequence (Q07820 whole entry): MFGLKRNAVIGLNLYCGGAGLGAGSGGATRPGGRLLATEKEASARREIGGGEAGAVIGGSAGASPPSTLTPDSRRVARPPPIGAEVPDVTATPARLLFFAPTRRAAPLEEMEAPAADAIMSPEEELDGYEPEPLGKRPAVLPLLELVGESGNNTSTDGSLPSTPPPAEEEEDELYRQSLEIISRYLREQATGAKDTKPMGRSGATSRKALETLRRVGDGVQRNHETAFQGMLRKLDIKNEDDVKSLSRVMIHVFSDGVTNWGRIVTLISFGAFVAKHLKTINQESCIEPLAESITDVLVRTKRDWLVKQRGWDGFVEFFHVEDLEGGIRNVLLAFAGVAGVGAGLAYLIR
Experiment: Protein-protein interaction assay MCL-1/Noxa BH3 peptide (MCL-1 assay), TR-FRET
Assay type: binding
Settings: MBP-MCL-1 / Noxa BH3-derived peptide, median
OUTCOME MEASURE: IC50 (nM)
Record the value in nM, omitting the unit from your answer.

molecule="COCCn1nc2c(c1C)-c1cccc3c(CCCOc4cccc5ccccc45)c(C(=O)O)n(c13)C/C=C\\COC2 (racemic)" outcome_measure=IC50 value_measured=4.12

INPUT: State the recorded IC50 for this entry: CC(C)OCc1nn(C)c2c1-c1cccc3c(CCCOc4cccc5ccccc45)c(C(=O)O)n(c13)CCCCN(C)C2 (single isomer, unassigned) [Example 1-74]
OUTPUT: 4.79

INPUT: Please answer likewise for COCCn1nc(C2CC2)c2c1COCCCCn1c(C(=O)O)c(CCCOc3cccc4ccccc34)c3cccc-2c31 (single isomer, unassigned; enantiomer 1) [Example 103]
OUTPUT: 2.98

INPUT: Next molecule: O=C(O)c1c(CCCOc2cccc3ccccc23)c2cccc3c2n1CCCCOCc1nn2c(c1-3)CCCC2 (single isomer, unassigned) [Example 255]
OUTPUT: 67

INPUT: And what about the molecule Cc1cc2c(OCCCc3c(C(=O)O)n4c5c(cccc35)-c3c(C)nn(C)c3COCCCC4)cccc2cc1F (racemic) [Example 049] ?
OUTPUT: 3.18

INPUT: And then CN(C)S(=O)(=O)N1CCN(c2ccc(OCc3nn(C)c4c3-c3cccc5c(CCCOc6cccc7ccccc67)c(C(=O)O)n(c35)CCCCCC4)cc2)CC1 (racemic) [Example 1-39] , what is it?
OUTPUT: 2.51

* * *

Recorded IC50 by entry
Tested on: SUDHL5
Assay: Anti-proliferative effect (CellTiter-Glo, 72 h), SUDHL5
Format: cell-based
Conditions: Homo sapiens, SU-DHL-5, 72 h, SUDHL5 cells, antiproliferation, 72 h incubation, median, read-out: Antiproli SUDHL5 [M] (median)
Record the value in M, omitting the unit from your answer.

INPUT: // map CN1CCCn2c(C(=O)O)c(CCCOc3cccc4ccccc34)c3cccc(c32)-c2c(CN3CCOCC3)nn(C)c2C1 (single isomer, unassigned; enantiomer 1) [Example 1-43] to recorded IC50 (system: SUDHL5)
OUTPUT: 9.58e-06

INPUT: Try the compound Cc1nn(C)c2c1-c1cccc3c(CCCOc4ccc(F)c5ccccc45)c(C(=O)O)n(c13)CCCCOC2 (single isomer, unassigned; enantiomer 1) [Example 022]
OUTPUT: 7.53e-06

INPUT: Please give the result for CC(=O)N1CCN(c2ccc(OCc3nn(C)c4c3-c3cccc5c(CCCOc6cccc7ccccc67)c(C(=O)O)n(c35)CCCCOC4)cc2)CC1 (single isomer, unassigned; enantiomer 1) [Example 1-25] too.
OUTPUT: 2.86e-05

INPUT: Also need Cc1ccc2c(CCCOc3cccc4ccccc34)c(C(=O)O)n3c2c1-c1c(C)nn(C)c1COCCC3 (single isomer, unassigned; enantiomer 1) [Example 025] , thanks.
OUTPUT: 6.44e-06

INPUT: Moving on to the next compound: COC1(c2ccc(OCc3nn(C)c4c3-c3cccc5c(CCCOc6cccc7ccccc67)c(C(=O)O)n(c35)CC=CCOC4)cc2)CCOCC1 (racemic) [Example 1-64]
OUTPUT: 1.2e-05
